Reference source for all entries: ChEMBL document CHEMBL1961873

Quick list: inhibition per entry.
target: Sphingosine kinase 2 (Homo sapiens); details: at 0.1 µM;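 note: values reported as mean percent inhibition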

smiles-record | unit-tag | inhibition
O=C(Nc1n[nH]c2nc(-c3ccc(O)cc3)c(Br)cc12)C1CC1 | % | -0.76
O=C1Nc2ccccc2/C1=C/Nc1ccc(-n2cncn2)cc1 | % | -0.36
COc1cc2ncn(-c3cc(OCc4cccs4)c(C(N)=O)s3)c2cc1OC | % | 0.11
O=C1Nc2ccc(I)cc2C1=Cc1cc(Br)c(O)c(Br)c1 | % | -0.66
NS(=O)(=O)c1ccc(N/N=C2\C(=O)Nc3ccc(C(=O)NCCCn4ccnc4)cc32)cc1 | % | 0.75
Fc1ccc(-c2ncn(C3CCNCC3)c2-c2ccnc(Oc3ccc(Oc4ccccc4)cc3)n2)cc1 | % | -0.41
CN(C)c1ccc2c(c1)/C(=C/Nc1ccc(S(N)(=O)=O)cc1)C(=O)N2 | % | 0.7
NC(=O)c1ccc(Oc2nccc(-c3c(-c4ccc(F)cc4)ncn3C3CCNCC3)n2)cc1 | % | 0.71
CN(c1ccc(NC(=O)Nc2c(Cl)cccc2Cl)cc1)c1ccnc(Nc2cccc(CS(C)(=O)=O)c2)n1 | % | 0.77
NS(=O)(=O)c1ccc(N/N=C2\C(=O)Nc3ccc(-c4cnco4)cc32)cc1 | % | 1.12
C[C@@H](Oc1cc(-n2cnc3ccc(OC4CCN(C)CC4)cc32)sc1C(N)=O)c1ccccc1Cl | % | -0.31
O=C(Nc1n[nH]c2cc(-c3ccccc3)ccc12)C1CC1 | % | -1.1
Fc1ccc(-c2nc3n(c2-c2ccncc2)CCS3)cc1 | % | -0.14
COc1cc(C)c(N(C)C(=O)CN(C)C)cc1Nc1nc(Nc2cccc(F)c2C(N)=O)c2cc[nH]c2n1 | % | 0.91
CCc1nccc2c1nc(-c1nonc1N)n2CC | % | 1.28
Fc1ccc(-c2ncn(CCCN3CCOCC3)c2-c2ccncc2)cc1 | % | -0.81
CCN(CC)Cc1ccc(Nc2nccc(-c3cnn4ncccc34)n2)cc1 | % | 4.29
COc1cc(Nc2ncc(-c3ccccc3)o2)cc(OC)c1OC | % | 1.41
COc1cc2ncn(-c3cc(OCCc4ccccc4)c(C(N)=O)s3)c2cc1OC | % | -3.06
Fc1ccc(-c2ncn(C3CCNCC3)c2-c2ccnc(Oc3ccc(F)c(F)c3)n2)cc1 | % | 1.4
Cc1ccc(NC(=O)c2ccoc2)cc1-c1ccc(C(=O)NCC2CC2)cc1 | % | 0.42
